Can you tell me GI50 for the items I'm about to list?
# Test system: LOX IMVI
# experimentNotes: NCI tumour cell line growth inhibition, 48 h
The source made the active and inactive calls. No stated cut-off is given here; in the data, active = GI50 up to about 1.1 µM and inactive = higher.

Record CCOC(=O)N1Cc2ccoc2C1 . Reported GI50: > 100 µM (inactive)

Record CC(=O)c1ccc2c(c1)CC1(C2)Cc2cc3c(c(C(=O)O)c2C1)CCC3 (stereo unspecified) . Reported GI50: > 100 µM (inactive)

Record Cc1ccc(S(=O)(=O)C2=c3ncccc3=C3C(=O)c4ccccc4C(=O)C32)cc1 (stereo unspecified) . Reported GI50: > 100 µM (inactive)

Record CC(=O)On1c(-c2ccccc2-c2nc3ccccc3n2OC(C)=O)nc2ccccc21 . Reported GI50: 18.5 µM (inactive)

Record C/C(=C\CNc1ncnc2[nH]c(Cl)nc12)CO . Reported GI50: > 100 µM (inactive)

Record CCCCCC(=O)OCC1(CO)C/C(=C\CC(C(C)C)C(C)C)C(=O)O1 (stereo unspecified) . Reported GI50: 27 µM (inactive)

Record CC(C)(/C=N\O)NO . Reported GI50: > 10 µM (inactive)

Record COC(=O)c1cc(C#N)[nH]c1-c1cc(Br)cs1 . Reported GI50: 11.3 µM (inactive)

Record CC(=O)c1cc2ccccc2[n+]([O-])c1N . Reported GI50: > 100 µM (inactive)

Record O=C1CSC(c2ccccc2O)N1c1ccc2c(c1)Oc1c(Cl)c3c(c(Cl)c1=N2)Oc1cc(N2C(=O)CSC2c2ccccc2O)ccc1N=3 (stereo unspecified) . Reported GI50: 42.1 µM (inactive)

Record NC(=O)c1cc2ccc(O)cc2o/c1=N/NC(=O)c1ccccc1 . Reported GI50: 47.8 µM (inactive)

###

# Tested on: SN12C
# experimentNotes: NCI tumour cell line growth inhibition, 48 h
The source made the active and inactive calls. Cut-off read from the data, not from the text of the source: active = GI50 up to about 1.1 µM and inactive = higher. Residues, ends and D or L forms follow the SMILES beside them. *: point of attachment. OBn = c1ccc(CO*)cc1
Can you tell me GI50 for the items I'm about to list?

Record COC(=O)c1c(O)ccc2c1c1c(n2Cc2ccccc2Cl)C(=O)c2ccccc2C1=O . Reported GI50: 10.2 µM (inactive)

Record Cc1cc(Br)c(N2C3=C(CC4=C2CCCC4=O)C(=O)CCC3)c(Br)c1 . Reported GI50: 74.1 µM (inactive)

Record CCOP(=O)(OCC)C(C(=O)OC)C(=O)C(=O)Nc1c(C)cc(Br)cc1C (centres undefined) . Reported GI50: > 100 µM (inactive)

Record COc1ccc(Nc2[nH]c(C(C)=O)c(N)c2C(=S)Nc2ccccc2)cc1 . Reported GI50: 86.7 µM (inactive)

Record CCCCCCCC(=O)OC[C@@H](C[As](=O)(O)O)OC(=O)CCCCCCC . Reported GI50: 11.2 µM (inactive)

Record CC1(C)CCCOc2cccc(c2)OCCCC(C)(C)C1=O . Reported GI50: 45.3 µM (inactive)

Record O=C1c2c(ccc3c2CCCC3)CC1Cc1ccc2c(c1)CCCC2 (centres undefined) . Reported GI50: 45 µM (inactive)

Record Nc1nc(N)c(/N=N/c2ccc(C(=O)O)c(O)c2)c(N)n1 . Reported GI50: > 100 µM (inactive)

Record COCCOCOC(CCCCO)c1cc(C)c(O[Si](C)(C)C(C)(C)C)c(C)c1 (centres undefined) . Reported GI50: 2.69 µM (inactive)

Record Cc1cc(Cl)ccc1NC(=O)C(=O)Cc1occc(=O)c1O . Reported GI50: > 100 µM (inactive)

Record COc1ccc2[nH]cc(/C=C(/C)c3ccncc3)c2c1 . Reported GI50: 8.59 µM (inactive)

Record COC(=O)c1cc(C#N)[nH]c1-c1cc(Br)cs1 . Reported GI50: 14.9 µM (inactive)

Record C[Si](C)(OCCS(=O)(=O)O)C1S(=O)(=O)OCCOS1(=O)=O . Reported GI50: > 100 µM (inactive)

Record Nc1ccc(C2=N/C(=C\c3cccc(N)c3)C(=O)O2)cc1 . Reported GI50: > 100 µM (inactive)

Record Clc1sc(Cl)c2c1[C@H](Cl)C[C@@H]2Cl . Reported GI50: 16.8 µM (inactive)

Record COc1ccc2c(c1)[n+]([O-])c(/C(C)=N/NC(N)=S)c(C)[n+]2[O-] . Reported GI50: 39.4 µM (inactive)

Record C#CCCCC(=C)C[C@H](OCc1ccccc1)[C@H]1OC(=O)[C@@H]1C . Reported GI50: > 100 µM (inactive)

Record CC1=NN(c2ccccc2)C(=O)C1=C1SCCS1 . Reported GI50: > 83 µM (inactive)

Record COC(=O)c1c(C)nc(C)c(NO)c1-c1ccccc1C(F)(F)F . Reported GI50: 27 µM (inactive)

Record NC(CCC(=O)OCc1ccccc1)C(=O)NC(CCC(=O)OCc1ccccc1)C(=O)O (centres undefined) (H-Glu(OBn)-Glu(OBn)-OH; configuration not given here) . Reported GI50: > 100 µM (inactive)

Record OC1=C(c2ccccc2)C2=NCCN2c2ccccc21 . Reported GI50: > 100 µM (inactive)

Record CC(C)(/C=N\O)NO . Reported GI50: > 10 µM (inactive)

Record CCCCCCNC(=S)N/N=C(\C)c1ccccn1 . Reported GI50: 1.41 µM (inactive)

Record CC1=CC(=O)c2ccccc2C1=O . Reported GI50: 12.4 µM (inactive)

###

# Test system: SW-620
# experimentNotes: NCI tumour cell line growth inhibition, 48 h
Activity calls are given as the source filed them. Cut-off read from the data, not from the text of the source: active = GI50 up to about 1.1 µM and inactive = higher.
Give your call using only these classes: 1.0 for active, 0.0 for inactive

Which outcome did this test record for the molecule COc1ccc(-n2c(=O)n(C)c(=O)n2-c2c(C)c(C)c(C)c(C)c2C)cc1 ?
0.0

Which outcome did this test record for the molecule COc1cccc2c1C(=O)c1c(O)c3c(c(O)c1C2=O)C[C@@](O)(C(C)=O)CC3S(=O)(=O)O (some centres not stated) ?
0.0

Which outcome did this test record for the molecule O=C1NC(c2ccccc2)C1N(Cc1ccccc1)Cc1ccccc1 (configuration not stated) ?
0.0

Which outcome did this test record for the molecule CCOC(=O)c1cn(CC)c2cc3c(cc2c1=O)SCS3 ?
0.0

Which outcome did this test record for the molecule CN=[S+]([O-])(c1ccccc1)c1ccccc1 ?
0.0

Which outcome did this test record for the molecule CC(C)C(Br)C(=O)NCC(=O)O (configuration not stated) ?
0.0

Which outcome did this test record for the molecule COC1C(O)C(C)OC(O[C@@H]2C[C@H]3CC[C@@H]4[C@H](CC[C@]5(C)[C@@H](C6=CC(=O)OC6)CC[C@]45O)[C@@]3(C)[C@H](O)C2)C1O (some centres not stated) ?
1.0

Which outcome did this test record for the molecule NC(Cc1cccc([N+](=O)[O-])c1)C(=O)O (configuration not stated) ?
0.0

Which outcome did this test record for the molecule O=C(c1ccc(Cl)cc1)N(C(=S)OCc1ccccn1)c1ccccc1 ?
0.0

Which outcome did this test record for the molecule C/C(=N/CC(=O)O)c1ccccc1 ?
0.0

Which outcome did this test record for the molecule O=S1(=O)NN=C(NCc2ccc(F)cc2)c2ccccc21 ?
0.0

Which outcome did this test record for the molecule CCOC(CNCCC(=O)OC)OCC ?
0.0

Which outcome did this test record for the molecule COC(=O)NC1=NNC(=O)c2ccccc2N1 ?
0.0

Which outcome did this test record for the molecule COC(=O)c1c(C)nc(C)c(NO)c1-c1ccccc1C(F)(F)F ?
0.0

Which outcome did this test record for the molecule CCCSCC(P(=O)(O)O)P(=O)(O)O.NC1CCCCC1 ?
0.0

Which outcome did this test record for the molecule CC(=O)On1c(-c2ccccc2-c2nc3ccccc3n2OC(C)=O)nc2ccccc21 ?
0.0

Which outcome did this test record for the molecule COC(=O)CCC12CCC(O1)c1ccccc12 (configuration not stated) ?
0.0

Which outcome did this test record for the molecule O=C(NCCCc1cn[nH]c(=O)n1)c1cccc2nc3ccccc3nc12 ?
0.0

Which outcome did this test record for the molecule C=O.NNCCc1n[nH]c(=O)n1N ?
0.0

Which outcome did this test record for the molecule O=C(/C=C/c1c(O)ccc2ccccc12)c1cccc2ccccc12 ?
0.0

Which outcome did this test record for the molecule COc1ccc2c(c1)CCc1c-2n(CCN(C)C)c2ccc(OC)cc12 ?
0.0

Which outcome did this test record for the molecule CC1(C)C(OC(=O)c2ccccc2)C[C@]23CCC[C@](C)(C[C@@H](O)C12)C3 (some centres not stated) ?
0.0

Which outcome did this test record for the molecule COc1ccc(C(=O)Cc2c(C(=O)c3ccccc3)c3ccccc3n2C(=O)c2ccccc2)cc1 ?
0.0

Which outcome did this test record for the molecule Cc1ccc(SCC(CF)OC(C)n2cnc3c(O)nc(N)nc32)cc1 (configuration not stated) ?
0.0

Which outcome did this test record for the molecule O=C(COc1ccccc1Cl)N1N=C(c2ccccc2)CC1(O)c1ccccc1 (configuration not stated) ?
0.0

Which outcome did this test record for the molecule O=C1CSC(c2c[nH]c3ccccc23)N1c1ccc(Cl)cc1 (configuration not stated) ?
0.0

Which outcome did this test record for the molecule CC(C)=CCC(O)C1=CC(=O)c2c(O)ccc(O)c2C1=O (configuration not stated) ?
1.0
